All values here come from ChEMBL document CHEMBL4513216.

Assay: Toxicity liver stage against HepG2, at 10uM
Assay type: cell-based
Parameters: test concentration 10 uM, cell line HepG2-A16-CD81EGFP
Details: human, HepG2-A16-CD81EGFP cells; read-out: INHIBITION
Below is a list of entries, each paired with its recorded cytotoxicity at 10 µM value.
Only the number, expressed in %, is required.

CCN1CCN(S(=O)(=O)c2cc(Cl)c(Cl)cc2C)CC1    2.28
O=C(c1cccnc1)N1CCOC(CCCc2ccccc2)C1 (stereo unspecified)    7.07
O=C(NC1CCCCC1)N1CCc2onc(COc3cccnc3)c2C1    -69.9

Enquiry: For the compound `Cc1cccc(OCCC(=O)N2CCN(CC(=O)NC3CC3)CC2)c1C` , what cytotoxicity at 10 µM is on record?
Return: 2.22

Enquiry: What measured cytotoxicity at 10 µM goes with `CC[C@H]1CN2CC[C@H]1C[C@@H]2CNCc1cccc(C#N)c1` ?
Return: 5.96

Enquiry: Please look up its cytotoxicity at 10 µM: O=C(Cc1cc2c(cc1Br)OCCO2)NC1CCS(=O)(=O)C1 (stereo unspecified)
Return: 10.1

* * *

Test: Toxicity liver stage against HepG2, at 10uM
Assay type: cell-based
Design: test concentration 10 uM, cell line HepG2-A16-CD81EGFP
Conditions: human, HepG2-A16-CD81EGFP cells; read-out: INHIBITION
measurement kind: cytotoxicity at 10 µM (%)
Just the number in %, nothing appended.

CCc1cc(O)n2nc(C3CCN(C(=O)c4ccncc4)CC3)cc2n1    3.51

Enquiry: Param item = Cc1nc2ccccc2nc1CN(C)C1CCCN(c2cccnn2)C1 (stereo unspecified) ; retrieve measured cytotoxicity at 10 µM.
Return: -9.71

Enquiry: Given the compound Cc1nc(-c2ccccc2)sc1C(=O)N(C1CC1)C1CC(=O)NC1=O (stereo unspecified) , what is its reported cytotoxicity at 10 µM?
Return: 2.78

Enquiry: cytotoxicity at 10 µM for Cc1nc[nH]c1C(=O)N1CCC2(CN(C)C(=O)O2)C1 (stereo unspecified) ?
Return: 2.99

Enquiry: I'd like to know its cytotoxicity at 10 µM. The compound in question is `Cc1[nH]ccc1C(=O)N1CCC(c2nnc(Cn3cccn3)n2C)CC1`
Return: -11.5

Enquiry: # cytotoxicity at 10 µM lookup, item `c1cc(-c2ccc3c(c2)CCC32CCN(c3nncs3)CC2)ccn1`
Return: 20.4

* * *

Test: Toxicity liver stage against HepG2, at 10uM
Format: cell-based
Design: test concentration 10 uM, cell line HepG2-A16-CD81EGFP
Conditions: human, HepG2-A16-CD81EGFP cells; read-out: INHIBITION
Listed molecules paired with reported cytotoxicity at 10 µM

CCCN1C[C@H](NC(=O)c2cc(C)no2)[C@@H](c2ccc(OC)cc2)C1    -27.3%
Cc1cc(N2CC(c3n[nH]c4nccnc34)C2)ncn1    -11.2%
CC1c2ncc(Cn3cncn3)n2CCN1C(=O)c1ccsc1 (configuration not stated)    -0.551%

Enquiry: Requested read-out: cytotoxicity at 10 µM. Entry: CC(C)c1nc(CN(C)C2CCCN(c3cccnn3)C2)no1 (configuration not stated)
Return: -9.92%

Enquiry: Entry `Fc1ccc(OCc2nnc([C@H]3CCN(Cc4ccccn4)C3)o2)cc1` has what cytotoxicity at 10 µM?
Return: 0.413%

Enquiry: Sample `CC(C)[C@@H]1CN(Cc2ccccc2C#N)C[C@H]1NC(=O)N(C)C` — what was its cytotoxicity at 10 µM?
Return: -12.3%

Enquiry: Looking for the measured cytotoxicity at 10 µM of `Cc1ccc(CNC(=O)CNCC2CCN(CCO)CC2)s1` , can you help?
Return: 6.89%

Enquiry: Name the recorded cytotoxicity at 10 µM for `CCc1ncc2c(n1)CN(CC(=O)Nc1nncs1)CC2` .
Return: 1.74%

Enquiry: Quick check: cytotoxicity at 10 µM of `Cc1noc(C)c1C(=O)N1C[C@@H]2CC[C@H]1CN(c1cnccn1)C2` ?
Return: 8.32%

Enquiry: Reported cytotoxicity at 10 µM, molecule COC1CCN(S(=O)(=O)N2CC(c3ccccc3)C(C)(C)C2)CC1 (configuration not stated) : ____
Return: 3.64%

Enquiry: Could you share which cytotoxicity at 10 µM value was measured for CC(C)c1nccn1C1CCCN(C(=O)CCc2cnn(C)c2)C1 (configuration not stated) ?
Return: -1.58%

Enquiry: # get_value(readout='cytotoxicity at 10 µM', item= `Cc1ccc2[nH]c([C@H]3CCN(CC4CCCCC4)C3)nc2c1` )
Return: -3.45%
